log10 of IC50 listing for selected molecules.
test system: BC; assay: Cytotoxicity against BC cells.; type: functional, cell-based; conditions: Homo sapiens
endpoint-name: log10 of IC50 (log10 of the value in nM)

{"molecule": "CC1CCC2C(CC3(CCCCCCC4(CC5C(=O)OC6OC7(C)CCC8C(C)CCC5C68OO7)C(=O)OC5OC6(C)CCC7C(C)CCC4C57OO6)C(=O)OC4OC5(C)CCC6C(C)CCC3C46OO5)C(=O)OC3OC4(C)CCC1C32OO4 (configuration not stated)", "assayed-system": "BC", "log10 of IC50": 3.45}
{"molecule": "CC1CCC2C(CCCCCCCC3(CC4C(=O)OC5OC6(C)CCC7C(C)CCC4C57OO6)C(=O)OC4OC5(C)CCC6C(C)CCC3C46OO5)C(=O)OC3OC4(C)CCC1C32OO4 (configuration not stated)", "assayed-system": "BC", "log10 of IC50": 3.30}
{"molecule": "C[C@@H]1CC[C@H]2[C@@H](CCCCc3ccccc3)C(=O)O[C@@H]3O[C@]4(C)CC[C@@H]1[C@]32OO4", "assayed-system": "BC", "log10 of IC50": 4.15}
{"molecule": "CCN(CC)C(=S)SC(CC1C(=O)O[C@@H]2O[C@]3(C)CC[C@H]4[C@H](C)CC[C@@H]1C24OO3)SC(=S)N(CC)CC (some centres not stated)", "assayed-system": "BC", "log10 of IC50": 3.38}
{"molecule": "C[C@@H]1CCC2[C@H](CCCCCC[C@@H]3C(=O)O[C@@H]4O[C@@]5(C)CC[C@H]6[C@H](C)CCC3[C@@]46OO5)C(=O)O[C@@H]3O[C@]4(C)CC[C@@H]1C23OO4 (some centres not stated)", "assayed-system": "BC", "log10 of IC50": 3.20}
{"molecule": "CCCCCC[C@H]1C(=O)O[C@@H]2O[C@]3(C)CC[C@H]4[C@H](C)CC[C@@H]1[C@@]24OO3", "assayed-system": "BC", "log10 of IC50": 3.76}
{"molecule": "C[C@@H]1CC[C@H]2[C@H](CCCCc3ccccc3)C(=O)O[C@@H]3O[C@]4(C)CC[C@@H]1[C@]32OO4", "assayed-system": "BC", "log10 of IC50": 3.70}
{"molecule": "CCCCCC1(CC2C(=O)OC3OC4(C)CCC5C(C)CCC2C35OO4)C(=O)OC2OC3(C)CCC4C(C)CCC1C24OO3 (configuration not stated)", "assayed-system": "BC", "log10 of IC50": 4.56}
{"molecule": "C[C@@H]1CCC2[C@H](CCCCCC[C@H]3C(=O)O[C@@H]4O[C@@]5(C)CC[C@H]6[C@H](C)CCC3[C@@]46OO5)C(=O)O[C@@H]3O[C@]4(C)CC[C@@H]1C23OO4 (some centres not stated)", "assayed-system": "BC", "log10 of IC50": 3.20}
{"molecule": "CC1CCC2C(CCCCCCC3(CC4C(=O)OC5OC6(C)CCC7C(C)CCC4C57OO6)C(=O)OC4OC5(C)CCC6C(C)CCC3C46OO5)C(=O)OC3OC4(C)CCC1C32OO4 (configuration not stated)", "assayed-system": "BC", "log10 of IC50": 3.08}
{"molecule": "CCCCCCC1(CC2C(=O)OC3OC4(C)CCC5C(C)CCC2C35OO4)C(=O)OC2OC3(C)CCC4C(C)CCC1C24OO3 (configuration not stated)", "assayed-system": "BC", "log10 of IC50": 3.11}
{"molecule": "C[C@@H]1CC[C@H]2C(C[C@]3(C)C(=O)O[C@@H]4O[C@]5(C)CC[C@H]6[C@H](C)CC[C@@H]3[C@@]46OO5)C(=O)O[C@@H]3O[C@]4(C)CC[C@@H]1C32OO4 (some centres not stated)", "assayed-system": "BC", "log10 of IC50": 4.11}

###

tested on: Plasmodium falciparum; assay: Antimalarial activity against Plasmodium falciparum; type: functional, organism-based

{"compound": "C[C@@H]1CCC2[C@H](CCCCCC[C@H]3C(=O)O[C@@H]4O[C@@]5(C)CC[C@H]6[C@H](C)CCC3[C@@]46OO5)C(=O)O[C@@H]3O[C@]4(C)CC[C@@H]1C23OO4 (stereo partly specified)", "EC50": "10.5 nM"}
{"compound": "CC1CCC2C(CC3(CCCCc4ccccc4)C(=O)OC4OC5(C)CCC6C(C)CCC3C46OO5)C(=O)OC3OC4(C)CCC1C32OO4 (stereo unspecified)", "EC50": "3.4 nM"}
{"compound": "CC1CCC2C(CCCCCCCC3(CC4C(=O)OC5OC6(C)CCC7C(C)CCC4C57OO6)C(=O)OC4OC5(C)CCC6C(C)CCC3C46OO5)C(=O)OC3OC4(C)CCC1C32OO4 (stereo unspecified)", "EC50": "3.1 nM"}
{"compound": "C[C@@H]1CCC2[C@H](CCCCCC[C@@H]3C(=O)O[C@@H]4O[C@@]5(C)CC[C@H]6[C@H](C)CCC3[C@@]46OO5)C(=O)O[C@@H]3O[C@]4(C)CC[C@@H]1C23OO4 (stereo partly specified)", "EC50": "1.4 nM"}
{"compound": "CC1CCC2C(CSCCCSCC3C(=O)OC4OC5(C)CCC6C(C)CCC3C46OO5)C(=O)OC3OC4(C)CCC1C32OO4 (stereo unspecified)", "EC50": "13 nM"}
{"compound": "CCCCCCC1(CC2C(=O)OC3OC4(C)CCC5C(C)CCC2C35OO4)C(=O)OC2OC3(C)CCC4C(C)CCC1C24OO3 (stereo unspecified)", "EC50": "5 nM"}

###

experiment: Therapeutic index (TI) determined as IC50 of vero cells to that of EC50; type: cell-based; details: plasmodium falciparum, read-out: TI
endpoint-name: selectivity ratio

{"molecule": "CC1CCC2C(CC3(CCCCCCCC4(CC5C(=O)OC6OC7(C)CCC8C(C)CCC5C68OO7)C(=O)OC5OC6(C)CCC7C(C)CCC4C57OO6)C(=O)OC4OC5(C)CCC6C(C)CCC3C46OO5)C(=O)OC3OC4(C)CCC1C32OO4 (stereo not drawn)", "data-value": "> 2.1"}
{"molecule": "CCC[C@@H]1C(=O)O[C@@H]2O[C@]3(C)CC[C@H]4[C@H](C)CC[C@@H]1[C@@]24OO3", "data-value": "> 1.2"}
{"molecule": "COC(=O)C(C)(C)CC1C(=O)O[C@@H]2OC3(C)CC[C@H]4[C@H](C)CC[C@@H]1[C@@]24OO3 (single isomer, unassigned)", "data-value": "> 5"}

###

assay: Therapeutic index (TI) determined as IC50 of vero cells to that of EC50; type: cell-based; conditions: plasmodium falciparum, read-out: TI

{"molecule": "C[C@@H]1CC[C@H]2C(CCC(=O)c3ccc[nH]3)C(=O)O[C@@H]3O[C@]4(C)CC[C@@H]1[C@]32OO4 (some centres undefined)", "selectivity ratio": "> 5.2"}
{"molecule": "CC1CCC2C(CCC(=O)c3ccc[nH]3)C(=O)OC3OC4(C)CCC1C32OO4 (centres undefined)", "selectivity ratio": "> 1.5"}
{"molecule": "CCCCC[C@H]1C(=O)O[C@@H]2O[C@]3(C)CC[C@H]4[C@H](C)CC[C@@H]1[C@@]24OO3", "selectivity ratio": "> 1.5"}
{"molecule": "CCC[C@H]1C(=O)O[C@@H]2O[C@]3(C)CC[C@H]4[C@H](C)CC[C@@H]1[C@@]24OO3", "selectivity ratio": "> 2.1"}

###

experiment: Therapeutic index (TI) determined as IC50 of vero cells to that of EC50; type: cell-based; conditions: plasmodium falciparum, read-out: TI

{"compound": "CCCC1(CC2C(=O)OC3OC4(C)CCC5C(C)CCC2C35OO4)C(=O)OC2OC3(C)CCC4C(C)CCC1C24OO3 (centres undefined)", "selectivity ratio": "> 3"}
{"compound": "CCCCC1(CC2C(=O)OC3OC4(C)CCC5C(C)CCC2C35OO4)C(=O)OC2OC3(C)CCC4C(C)CCC1C24OO3 (centres undefined)", "selectivity ratio": "> 3"}
{"compound": "C[C@@H]1CC[C@H]2C(CCC(=O)c3ccccc3)C(=O)O[C@@H]3O[C@]4(C)CC[C@@H]1C32OO4 (some centres undefined)", "selectivity ratio": "> 1"}
{"compound": "CCCC[C@@H]1C(=O)O[C@@H]2O[C@]3(C)CC[C@H]4[C@H](C)CC[C@@H]1[C@@]24OO3", "selectivity ratio": "> 9.4"}
